test: Serum stability assay (RP-HPLC); format: in vitro ADME; conditions: mouse, time 6 (unit inferred), replicate 2, read-out: Fraction of peptide remaining, Supplementary Figure 5
No end group written: not given here.
ENDPOINT NAME: remaining at 6 h, 5 mM (%)

SUBSTANCE: PGLYYFD-NH2 (C-terminus assumed) [Pep70]
ENDPOINT NAME: remaining at 6 h, 5 mM
UNIT ABBREVIATION: %
REPORTED MEASUREMENT: 2.13

----------
Assay: Pharmacokinetic assay in SD rats
Assay type: in vivo, rat
Settings: Sprague-Dawley, rat; male SD rats, single iv dose: JT003 0.5 mg/kg, ADP355 1.0 mg/kg; plasma, LC-MS/MS; non-compartmental; Mean ± SD, n = 3-6
Method: Male SpragueDawley (SD) rats were randomly divided into two groups (n = 3 per group) and received a single intravenous dose of JT003 (0.5 mg/kg) or ADP355 (1.0 mg kg^−1) respectively. […] Plasma concentrations of the two peptides were measured by LC-MS/MS (ThermoFisher Scientific, USA). Pharmacokinetic parameters of JT003 and ADP355 were calculated using non-compartmental analysis in Phoenix WinNonlin (version 8.0, Pharsight, USA). […]
Non-standard residues stand in square brackets, D forms with d. Residues, ends and D or L forms follow the SMILES beside them. Nva = CCC[C@H](N)C(=O)O
ENDPOINT NAME: AUC(0-inf) (ng·h/mL)

MOLECULE: CCC[C@H](NC(=O)[C@@H]1CCCN1)C(=O)N[C@@H](CC(C)C)C(=O)N[C@@H](Cc1ccc(O)cc1)C(=O)N[C@@H](Cc1ccc(O)cc1)C(=O)N[C@@H](Cc1ccccc1)C(=O)N[C@@H](C)C(N)=O [JT003] (H-P[Nva]LYYFA-NH2)
REPORTED MEASUREMENT: 20.9

MOLECULE: CCC[C@H](NC(=O)[C@@H]1CCCN1C(=O)[C@@H](NC(=O)[C@H](N)CC(N)=O)[C@@H](C)CC)C(=O)N[C@@H](CC(C)C)C(=O)N[C@@H](Cc1ccc(O)cc1)C(=O)N[C@H](CO)C(=O)N[C@@H](Cc1ccccc1)C(=O)N[C@@H](C)C(=O)N[C@H](CO)C(N)=O [ADP355] (H-[dN]IP[Nva]LY[dS]FA[dS]-NH2; N-terminus and C-terminus assumed)
REPORTED MEASUREMENT: 134
